Assay: Exposure and tissue distribution after 14 days repeat dosing, mouse
Type: in vivo
Conditions: NMRI, mouse, liver, po; Female mice, 60 mg/kg p.o. 14 days, 2 h post last dose; read-out: Liver concentration

| Chemical string | concentration at 2 h |
| --- | --- |
| O=c1ccc2ccc(O[C@@H]3C[C@H]4CC[C@@H](C3)N4)cc2o1 | 42000 ng/g |

###

Assay: Exposure and tissue distribution after 14 days repeat dosing, rat
Format: in vivo
Conditions: Wistar, rat, in vivo, sc; Male rats, 15 mg/kg s.c. 14 days, 2 h post last dose; read-out: Liver/plasma ratio

| Molecule | Kp at 2 h |
| --- | --- |
| O=c1ccc2ccc(O[C@@H]3C[C@H]4CC[C@@H](C3)N4)cc2o1 [Compound (I)] | 2 |

###

Test: Exposure and tissue distribution after 14 days repeat dosing, rat
Assay type: in vivo
Settings: Wistar, rat, in vivo, sc; Male rats, 5 mg/kg s.c. 14 days, 2 h post last dose; read-out: Liver/plasma ratio

| Chemical string | Kp at 2 h |
| --- | --- |
| O=c1ccc2ccc(O[C@@H]3C[C@H]4CC[C@@H](C3)N4)cc2o1 | 3 |

###

Experiment: Exposure and tissue distribution after 14 days repeat dosing, mouse
Format: in vivo
Conditions: NMRI, mouse, in vivo, po; Female mice, 15 mg/kg p.o. 14 days, 2 h post last dose; read-out: Liver/plasma ratio
Test readout: Kp at 2 h

| Chemical string | Test readout | Result value |
| --- | --- | --- |
| O=c1ccc2ccc(O[C@@H]3C[C@H]4CC[C@@H](C3)N4)cc2o1 | Kp at 2 h | 18 |

###

Assay: Exposure and tissue distribution after 14 days repeat dosing, mouse
Format: in vivo
Details: NMRI, mouse, brain, po; Female mice, 30 mg/kg p.o. 14 days, 2 h post last dose; read-out: Brain/plasma ratio
Test readout: Kp at 2 h

| Chemical string | Result value |
| --- | --- |
| O=c1ccc2ccc(O[C@@H]3C[C@H]4CC[C@@H](C3)N4)cc2o1 | 6 |

###

Test: Exposure and tissue distribution after 14 days repeat dosing, rat
Format: in vivo
Details: Wistar, rat, brain, sc; Female rats, 10 mg/kg s.c. 14 days, 2 h post last dose; read-out: Brain concentration

| Molecule | concentration at 2 h / ng/g |
| --- | --- |
| O=c1ccc2ccc(O[C@@H]3C[C@H]4CC[C@@H](C3)N4)cc2o1 [Compound (I)] | 1020 |

###

Assay: Tissue distribution after single dose, rat
Assay type: in vivo
Details: male, Wistar, sc; Brain, rat 5 mg/kg s.c.; read-out: AUC(0-24 h)

| Chemical string | AUC(0-t) (ng·h/mL) |
| --- | --- |
| O=c1ccc2ccc(O[C@@H]3C[C@H]4CC[C@@H](C3)N4)cc2o1 | 3190 |

###

Experiment: Exposure and tissue distribution after 14 days repeat dosing, mouse
Assay type: in vivo
Conditions: NMRI, mouse, liver, po; Female mice, 15 mg/kg p.o. 14 days, 2 h post last dose; read-out: Liver concentration

| Chemical string | concentration at 2 h [ng/g] |
| --- | --- |
| O=c1ccc2ccc(O[C@@H]3C[C@H]4CC[C@@H](C3)N4)cc2o1 | 7160 |

###

Assay: Tissue distribution after single dose, rat
Format: in vivo
Conditions: male, Wistar, sc; Lung, rat 5 mg/kg s.c.; read-out: AUC(0-24 h)

| Chemical string | Unit label | AUC(0-t) |
| --- | --- | --- |
| O=c1ccc2ccc(O[C@@H]3C[C@H]4CC[C@@H](C3)N4)cc2o1 | ng·h/mL | 17600 |

###

Test: Exposure and tissue distribution after 14 days repeat dosing, mouse
Assay type: in vivo
Conditions: NMRI, mouse, plasma, po; Female mice, 60 mg/kg p.o. 14 days, 2 h post last dose; read-out: Plasma concentration

| Chemical string | concentration at 2 h |
| --- | --- |
| O=c1ccc2ccc(O[C@@H]3C[C@H]4CC[C@@H](C3)N4)cc2o1 | 2000 ng/mL |

###

Experiment: Exposure and tissue distribution after 14 days repeat dosing, rat
Assay type: in vivo
Details: Wistar, rat, liver, sc; Female rats, 5 mg/kg s.c. 14 days, 2 h post last dose; read-out: Liver concentration

| Compound | concentration at 2 h, ng/g |
| --- | --- |
| O=c1ccc2ccc(O[C@@H]3C[C@H]4CC[C@@H](C3)N4)cc2o1 [Compound (I)] | 319 |

###

Assay: Exposure and tissue distribution after 14 days repeat dosing, mouse
Assay type: in vivo
Conditions: NMRI, mouse, brain, po; Male mice, 15 mg/kg p.o. 14 days, 2 h post last dose; read-out: Brain/plasma ratio

| Chemical string | Kp at 2 h |
| --- | --- |
| O=c1ccc2ccc(O[C@@H]3C[C@H]4CC[C@@H](C3)N4)cc2o1 | 7 |

###

Experiment: Linearity after single p.o. dose in mouse
Assay type: in vivo
Settings: female, NMRI, plasma, po; mouse, 60 mg/kg p.o.; read-out: T½ (converted)

| Compound | Unit label | half-life |
| --- | --- | --- |
| O=c1ccc2ccc(O[C@@H]3C[C@H]4CC[C@@H](C3)N4)cc2o1 [Compound (I)] | h | 6.1 |

###

System: plasma protein
Experiment: Plasma protein binding by equilibrium dialysis, human
Format: in vitro ADME
Test readout: fraction unbound at 2710 ng/ml

| Chemical string | Result value |
| --- | --- |
| O=c1ccc2ccc(O[C@@H]3C[C@H]4CC[C@@H](C3)N4)cc2o1 | 0.714 |

###

Assay: Exposure and tissue distribution after 14 days repeat dosing, rat
Type: in vivo
Details: Wistar, rat, plasma, sc; Male rats, 5 mg/kg s.c. 14 days, 2 h post last dose; read-out: Plasma concentration
Test readout: concentration at 2 h

| Chemical string | Result value |
| --- | --- |
| O=c1ccc2ccc(O[C@@H]3C[C@H]4CC[C@@H](C3)N4)cc2o1 | 77 ng/mL |

###

Experiment: in vivo
Details: male, Wistar, rat, plasma, po, 5 mg/kg

| Chemical string | Unit label | AUC(0-inf) |
| --- | --- | --- |
| O=c1ccc2ccc(O[C@@H]3C[C@H]4CC[C@@H](C3)N4)cc2o1 | ng·h/mL | 17 |

###

Assay: Linearity after single p.o. dose in mouse
Type: in vivo
Conditions: female, NMRI, plasma, po; mouse, 60 mg/kg p.o., compared to 10 mg/kg i.v.

| Chemical string | bioavailability (%) |
| --- | --- |
| O=c1ccc2ccc(O[C@@H]3C[C@H]4CC[C@@H](C3)N4)cc2o1 | 250 |

###

Experiment: Exposure and tissue distribution after 14 days repeat dosing, rat
Assay type: in vivo
Details: Wistar, rat, brain/plasma, sc; Female rats, 5 mg/kg s.c. 14 days, 2 h post last dose; read-out: Brain/plasma ratio
Protocol: Single time point data is available from two 14 days repeat dose studies in mice and rats dosed to both sexes. The three low doses were performed together as one study and the top dose was performed at another occasion as a satellite study. Samples were taken 2 h post last dose. Plasma, brain and liver were taken 2 h post last dose.
Test readout: Kp at 2 h

| Chemical string | Result value |
| --- | --- |
| O=c1ccc2ccc(O[C@@H]3C[C@H]4CC[C@@H](C3)N4)cc2o1 | 7 |

###

Assay: Linearity after single s.c. dose in rat
Format: in vivo
Conditions: male, Wistar, plasma, sc; rat, 10 mg/kg s.c.
Test readout: AUC(0-inf) (ng·h/mL)

| Compound | Unit label | Result value |
| --- | --- | --- |
| O=c1ccc2ccc(O[C@@H]3C[C@H]4CC[C@@H](C3)N4)cc2o1 [Compound (I)] | ng·h/mL | 1150 |

###

Assay: Exposure and tissue distribution after 14 days repeat dosing, rat
Type: in vivo
Conditions: Wistar, rat, plasma, sc; Female rats, 10 mg/kg s.c. 14 days, 2 h post last dose; read-out: Plasma concentration

| Chemical string | concentration at 2 h |
| --- | --- |
| O=c1ccc2ccc(O[C@@H]3C[C@H]4CC[C@@H](C3)N4)cc2o1 | 149 ng/mL |

###

Target: DA transporter (Homo sapiens, UniProt Q01959)
Sequence (Q01959 whole entry): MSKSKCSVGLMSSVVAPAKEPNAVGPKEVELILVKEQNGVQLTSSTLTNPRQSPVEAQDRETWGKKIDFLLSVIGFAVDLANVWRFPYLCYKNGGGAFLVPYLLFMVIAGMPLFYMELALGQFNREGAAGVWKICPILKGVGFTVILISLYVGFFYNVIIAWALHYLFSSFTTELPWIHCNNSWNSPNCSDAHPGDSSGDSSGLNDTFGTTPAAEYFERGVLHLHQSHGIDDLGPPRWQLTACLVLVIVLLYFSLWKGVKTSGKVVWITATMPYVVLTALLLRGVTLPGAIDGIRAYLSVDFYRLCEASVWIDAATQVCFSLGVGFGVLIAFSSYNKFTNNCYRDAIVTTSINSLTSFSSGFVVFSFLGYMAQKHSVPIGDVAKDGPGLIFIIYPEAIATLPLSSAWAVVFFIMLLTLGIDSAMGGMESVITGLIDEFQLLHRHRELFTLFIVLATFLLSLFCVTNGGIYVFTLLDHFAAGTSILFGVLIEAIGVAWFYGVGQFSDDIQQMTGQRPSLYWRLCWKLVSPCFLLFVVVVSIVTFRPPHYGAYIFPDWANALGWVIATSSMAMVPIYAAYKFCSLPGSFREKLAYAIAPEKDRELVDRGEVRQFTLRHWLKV
Experiment: ^3H-uptake human, DA transporter
Type: biochemical

| Compound | IC50 (µM) |
| --- | --- |
| O=c1ccc2ccc(O[C@@H]3C[C@H]4CC[C@@H](C3)N4)cc2o1 [Compound (I)] | 0.1 |

###

Assay: Exposure and tissue distribution after 14 days repeat dosing, rat
Type: in vivo
Conditions: Wistar, rat, brain, sc; Female rats, 15 mg/kg s.c. 14 days, 2 h post last dose; read-out: Brain concentration

| Chemical string | Unit label | concentration at 2 h |
| --- | --- | --- |
| O=c1ccc2ccc(O[C@@H]3C[C@H]4CC[C@@H](C3)N4)cc2o1 | ng/g | 1580 |

###

Assay: Exposure and tissue distribution after 14 days repeat dosing, mouse
Format: in vivo
Settings: mouse, liver, po; Male mice, 90 mg/kg p.o. 14 days, 2 h post last dose; read-out: Liver concentration

| Chemical string | concentration at 2 h |
| --- | --- |
| O=c1ccc2ccc(O[C@@H]3C[C@H]4CC[C@@H](C3)N4)cc2o1 | 75000 ng/g |
